src = ChEMBL document CHEMBL1201862

tested on: Malme-3M; test: NCI tumour cell line growth inhibition, 48 h
Activity calls are given as the source filed them. Rule as the data show it: active = GI50 up to about 1.1 µM and inactive = higher.
Could you please report measured GI50 for the items listed next?

[in] Hello, I am looking for reported GI50 with Malme-3M for CCCCCCCCCCCCCCCCNc1nc(=O)n(C2CC(O)C(COP(=O)(O)OC3CC(n4cc(F)c(=O)[nH]c4=O)OC3CO)O2)cc1F (centres undefined) . Could you help?
[out] 12.1 µM (inactive)

[in] Entry to check: C=CC[C@H]1[C@@H](O[Si](C)(C)C(C)(C)C)[C@H](n2ccc(=O)[nH]c2=O)O[C@@H]1CO[Si](C)(C)C(C)(C)C
[out] 2.89 µM (inactive)

[in] Entry to check: CC(=O)NNc1nc(C)c(C(=O)NNC(=O)C(=O)Nc2c([N+](=O)[O-])ccc(C)c2C)s1
[out] > 100 µM (inactive)

[in] Entry to check: Nc1nc(N)c2c(n1)CCC(S(=O)(=O)c1ccc3ccccc3c1)C2 (centres undefined)
[out] 2.24 µM (inactive)

[in] Entry to check: COc1ccc(/C=C2/C(=O)N(C(=O)c3ccc(Cl)cc3)N=C2C)cc1OC
[out] > 100 µM (inactive)

[in] Entry to check: COc1ccc(/C=C2\C[C@H]3[C@@H]4CCC5=C/C(=N/O)CC[C@]5(C)[C@H]4CC[C@]3(C)\C2=N\O)cc1OC
[out] 43.5 µM (inactive)

[in] Entry to check: Cc1ccc(S(=O)(=O)NC(=O)OC23COCN2COC3)cc1
[out] > 100 µM (inactive)

[in] Entry to check: CC(=O)OC1(Sc2ccccc2)CC2[C@H]3COC(C)(C)O[C@H]3CC[C@@]2(C)CC1=O (some centres undefined)
[out] 99.3 µM (inactive)

[in] Entry to check: Cc1cc(=O)nc(S(=O)(=O)NC(=S)Nc2ccc(Cl)cc2)[nH]1
[out] > 100 µM (inactive)

[in] Entry to check: CC(=O)Oc1cccc2c1C(=O)C(Br)(Br)CCC2
[out] 4.07 µM (inactive)

[in] Entry to check: N=C(N)NC1C(O)C(O)C(O)C(NC(=N)N)C1O (centres undefined)
[out] > 100 µM (inactive)

[in] Entry to check: FC(F)=C(c1ccc(-c2ccc(Cl)cc2)cc1)C(F)(F)F
[out] 17.2 µM (inactive)

[in] Entry to check: O=C(O)C(O)Cc1ccccn1 (centres undefined)
[out] > 100 µM (inactive)

[in] Entry to check: O=C(Nc1c(C(F)(F)F)cc(-c2ccccc2)[nH]c1=O)N1CCOCC1
[out] > 100 µM (inactive)
